Let's look at some binders and their measured pIC50.
Target: T1, recombinant human lymphotoxin-α homotrimer (human LTα3) (human, UniProt P01374 35-205)
T1 construct: Coated on plates in the ELISAs; also called rhLTα; lymphotoxin-α3 trimer
T1 sequence (looked up): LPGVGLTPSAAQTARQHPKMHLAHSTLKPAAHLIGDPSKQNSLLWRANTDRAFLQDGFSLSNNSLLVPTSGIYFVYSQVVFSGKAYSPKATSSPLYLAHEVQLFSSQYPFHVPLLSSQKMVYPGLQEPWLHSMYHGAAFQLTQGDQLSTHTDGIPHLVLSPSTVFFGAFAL
Test: phage competitive ELISA: rhLTα in solution competes with plate-coated LTα
On this scale, pIC50 is minus log10 of a concentration expressed in M (mol/L).

Record excerpt, results attached:
phage-displayed 2C8 Fab clone H6 (Fab, V domains shown, also called 2C8 clone H6) VH: EVQLVESGGGLVQPGGSLRLSCAASGYTFTSYVIHWVRQAPGKGLEWVGYNNPYNDGTNYNEKFKGRATISSDKSKNTAYLQMNSLRAEDTAVYYCSRPTMLPWFAYWGQGTLVTVSS VL: DIQMTQSPSSLSASVGDRVTITCRASQAVSSAVAWYQQKPGKAPKLQIYSASHRYTGVPSRFSGSGSGTDFTLTISSLQPEDFATYYCQEVYSTPWTFGQGTKVEIKR :: 8.96
phage-displayed 2C8.v2 Fab, wild-type phagemid clone (Fab, V domains shown, also called wild-type 2C8.v2) VH: EVQLVESGGGLVQPGGSLRLSCAASGYTFTSYVIHWVRQAPGKGLEWVGYNNPYNDGTNYNEKFKGRATISSDKSKNTAYLQMNSLRAEDTAVYYCSRPTMLPWFAYWGQGTLVTVSS VL: DIQMTQSPSSLSASVGDRVTITCRASQAVSSAVAWYQQKPGKAPKLQIYSASHRYTGVPSRFSGSGSGTDFTLTISSLQPEDFATYYCQQHYSTPWTFGQGTKVEIKR :: 8.50

Now look at this one.
Req: Consider the binder phage-displayed 2C8 Fab clone A8 (Fab, V domains shown, All phagemids kept the wild-type CDR-H3; also called 2C8 clone A8) VH: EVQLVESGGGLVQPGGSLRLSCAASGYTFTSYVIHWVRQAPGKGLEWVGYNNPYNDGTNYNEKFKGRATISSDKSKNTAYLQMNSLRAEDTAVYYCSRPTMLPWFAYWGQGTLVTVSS VL: DIQMTQSPSSLSASVGDRVTITCRASQAVSSAVAWYQQKPGKAPKLQIYSASHRYTGVPSRFSGSGSGTDFTLTISSLQPEDFATYYCQESYSTPWTFGQGTKVEIKR and give its recorded pIC50.
Resp: 9.49
